# assayed-target: Ras GEF SOS (Son of Sevenless) (Homo sapiens)
# Sequence (Q07889 564-1049 limits assumed): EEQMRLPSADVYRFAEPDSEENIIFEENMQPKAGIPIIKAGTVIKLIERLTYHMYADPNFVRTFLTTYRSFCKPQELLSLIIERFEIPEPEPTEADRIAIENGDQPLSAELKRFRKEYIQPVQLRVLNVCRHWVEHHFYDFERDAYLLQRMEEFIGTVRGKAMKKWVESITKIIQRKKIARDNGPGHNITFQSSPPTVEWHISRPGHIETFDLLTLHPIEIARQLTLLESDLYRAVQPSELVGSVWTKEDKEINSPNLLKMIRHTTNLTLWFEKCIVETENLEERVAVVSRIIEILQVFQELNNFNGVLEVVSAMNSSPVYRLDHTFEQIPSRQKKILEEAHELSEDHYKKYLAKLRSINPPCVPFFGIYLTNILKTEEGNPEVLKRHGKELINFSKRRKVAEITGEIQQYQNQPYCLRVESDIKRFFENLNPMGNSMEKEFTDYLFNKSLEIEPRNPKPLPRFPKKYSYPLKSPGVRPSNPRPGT
# Sequence (P01112 1-166 partner limits assumed): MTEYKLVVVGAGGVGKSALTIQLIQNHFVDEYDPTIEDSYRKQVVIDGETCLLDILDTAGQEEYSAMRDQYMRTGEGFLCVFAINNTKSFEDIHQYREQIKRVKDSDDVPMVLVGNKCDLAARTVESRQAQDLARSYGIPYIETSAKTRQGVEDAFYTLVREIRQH
# assay-comment: SOS-mediated nucleotide exchange on Ras (BODIPY-GDP fluorescence)
# Type: biochemical
# run-parameters: SOS-mediated exchange of BODIPY-GDP for GTP on Ras
pEC50: −log10 of the molar value. Counter-ions that a name gives are not always drawn.
observed-property: pEC50

Below, each entry is followed by its recorded pEC50 result.
compound: Cc1cc(N2CCC(CN)C2)c2nc(N3CCNCC3)n(Cc3cc(C)c(F)c(C)c3)c2c1 (centres unmarked) [Example 189, trifluoroacetate]
assayed-target: Ras GEF SOS (Son of Sevenless) (Homo sapiens)
pEC50: 5.30 to 6.00
--
compound: Cc1cc(C2=CCNCC2)c2nc(N3CCNCC3)n(Cc3cc(C)c(F)c(C)c3)c2c1 [Example 103]
assayed-target: Ras GEF SOS (Son of Sevenless) (Homo sapiens)
pEC50: 5.30 to 6.00
--
compound: CC(C)c1ccc(-n2nccc2-c2cc(Cl)cc3c2nc(N2CCNCC2)n3Cc2ccc(F)c(Cl)c2)cc1 [Example 169, trifluoroacetate]
assayed-target: Ras GEF SOS (Son of Sevenless) (Homo sapiens)
pEC50: 5.30 to 6.00
--
compound: CCc1cc(Cn2c(NCCN)nc3c(-c4ccccc4Cl)c(C)c(C)cc32)ccc1Cl [Example 112, trifluoroacetate]
assayed-target: Ras GEF SOS (Son of Sevenless) (Homo sapiens)
pEC50: 4.52 to 5.30

I have 4 compounds here; please give me pEC50 for each one.
1. Cc1cc2c(nc(N3CCNCC3)n2Cc2ccc(F)c(C)c2)c(-c2ccccc2C)n1 [Example 225]
2. Cc1cc(-c2ccccc2C)c2ncn(Cc3ccc(F)c(Cl)c3)c2c1 [Example 143]
3. Cc1cc(OCCN)c2nc(NCCN)n(Cc3cc(C)c(F)c(C)c3)c2c1 [Example 320]
4. CC(C)c1ccccc1-c1cccc2c1nc(N1CCNCC1)n2Cc1ccc(F)c(Cl)c1 [Example 94]

Result:
4.52 to 5.30
4.52 to 5.30
> 6.00
5.30 to 6.00

Hello, the source for this data is patent US10501421B1, in case you need it.
